Test: Toxicity liver stage against HepG2, at 10uM
Format: cell-based
Parameters: test concentration 10 uM, cell line HepG2-A16-CD81EGFP
Conditions: human, HepG2-A16-CD81EGFP cells; read-out: INHIBITION
Listing of entries alongside the reported cytotoxicity at 10 µM.
Report only the number, with the unit % understood.

Worked cases, answers included:
Compound: CCOc1ncccc1CNS(=O)(=O)c1ccc2c(c1)CCCC(=O)N2
Unit symbol: %
cytotoxicity at 10 µM: 12.1

Compound: NC(=O)NC1CCN(Cc2ccc3c(c2)CCC3)CC1
Unit symbol: %
cytotoxicity at 10 µM: -3.19

Compound: N#Cc1ccc(CNC(=O)C2=NN(c3ccccc3)C(=O)CN2)cc1
Unit symbol: %
cytotoxicity at 10 µM: -1.8

Compound: Cc1cccc(-c2cccc(CC3(C(=O)O)CCOCC3)c2)c1
Unit symbol: %
cytotoxicity at 10 µM: -25.7

Compound: CCn1cc(NC(=O)NCC(O)CN2CCCCC2)cn1 (stereo not drawn)
Unit symbol: %
cytotoxicity at 10 µM: 3.75

Compound: Cn1cc(-c2nc3c(cc2C(=O)O)CCN(C(=O)C2CC2)CC3)cn1
Unit symbol: %
cytotoxicity at 10 µM: 17.9

Compound: O=S(=O)(NCCn1cc(C2CCCNC2)nn1)c1ccc(Cl)cc1 (stereo not drawn)
Unit symbol: %
cytotoxicity at 10 µM: -17.1

Compound: CC1CCN(c2ncc(-c3ccccc3F)c(-c3nccn3C)n2)CC1
Unit symbol: %
cytotoxicity at 10 µM: 27.1

Would you mind telling me what cytotoxicity at 10 µM value was observed for "CCCn1ncc(C(=O)N2CCN(C(=O)c3ccc[nH]3)CC2)c1C" ?
-151

Would you mind telling me what cytotoxicity at 10 µM value was observed for CCOC(=O)CCC(=O)NC(C)c1ccc(NC(=O)CC)cc1 (stereo not drawn) ?
0.097

Would you mind telling me what cytotoxicity at 10 µM value was observed for "Cc1cccc(OC2CCN(C(=O)c3ccc4c(c3)OCO4)CC2)n1" ?
-5.51

Would you mind telling me what cytotoxicity at 10 µM value was observed for CC(C)C1CN(C(=O)Nc2cnn(CC(F)F)c2)CCO1 (stereo not drawn) ?
8.52

Would you mind telling me what cytotoxicity at 10 µM value was observed for "Cc1noc([C@]23COC[C@H]2CN(Cc2cc(C)on2)C3)n1" ?
0.841

* * *

Experiment: Toxicity liver stage against HepG2, at 10uM
Type: cell-based
Set-up: test concentration 10 uM, cell line HepG2-A16-CD81EGFP
Settings: human, HepG2-A16-CD81EGFP cells; read-out: INHIBITION
Measurement type: cytotoxicity at 10 µM (%)
Report only the number, with the unit % understood.

Worked cases, answers included:
Compound: Cc1c(C(=O)O)cnn1-c1ccc(-c2nc(C(C)(C)C)no2)cn1
Unit symbol: %
cytotoxicity at 10 µM: 7.19
--
Compound: CC(C)c1nc(CCN(C)C(=O)C2COc3ccccc3C2)no1 (stereo not given)
Unit symbol: %
cytotoxicity at 10 µM: 4.31
--
Compound: CCSCC(C)NCc1nc(-c2cccnc2)no1 (stereo not given)
Unit symbol: %
cytotoxicity at 10 µM: -7.66
--
Compound: N#Cc1cccc(CNC(=O)C2=NN(c3ccccc3)C(=O)CN2)c1
Unit symbol: %
cytotoxicity at 10 µM: -3.44

Would you mind telling me what cytotoxicity at 10 µM value was observed for "Cc1cnccc1N1CCCN(Cc2ccc(-c3cc[nH]n3)o2)CC1" ?
-5.13

Would you mind telling me what cytotoxicity at 10 µM value was observed for "CC(=O)N(C)CC(=O)Nc1cnc(-n2ccnc2)nc1" ?
-9.69

Would you mind telling me what cytotoxicity at 10 µM value was observed for "CN(C)c1nccc(CNC(=O)NCc2ccco2)n1" ?
-2.48

Would you mind telling me what cytotoxicity at 10 µM value was observed for c1nc2c(c(NC3CCc4ncnn4C3)n1)CCC2 (stereo not given) ?
-40.7

Would you mind telling me what cytotoxicity at 10 µM value was observed for "OCCN1CCC(CNCc2ccc(N3CCCCC3)cc2)CC1" ?
-3

Would you mind telling me what cytotoxicity at 10 µM value was observed for COCC(C)NS(=O)(=O)c1ccc(Br)cn1 (stereo not given) ?
-6.74

Would you mind telling me what cytotoxicity at 10 µM value was observed for "CC(C)(C)SCCCC(=O)N1CCC(Nc2cccnn2)CC1" ?
-8.26

Would you mind telling me what cytotoxicity at 10 µM value was observed for Cc1cccc(NC(=O)N2CCC3(CC(=O)N(c4ccsc4)C3)C2)c1 (stereo not given) ?
6.47
